Source: ChEMBL document CHEMBL4342517

- TEST_PROTOCOL: Half life in Sprague-Dawley rat at 2 mg/kg, iv measured during 5 mins to 12 hrs by LC-MS analysis
- PARTICULARS: in vivo
MEASURED_ATTRIBUTE: half-life (h)
Only the number, expressed in h, is required.

Requested field: half-life. Item: "COc1ccc(N(C)C(=O)[C@H](Cc2ccccc2)NC(=O)CN2CCN(S(=O)(=O)c3ccc(N)cc3)CC2=O)cc1" 1

* * *

- TEST_PROTOCOL: Mean residence time (0 to infinity) in Sprague-Dawley rat at 20 mg/kg, po measured during 5 mins to 12 hrs by LC-MS analysis
- PARTICULARS: in vivo
MEASURED_ATTRIBUTE: MRT inf (h)
Only the number, expressed in h, is required.

Requested field: MRT inf. Item: "COc1ccc(N(C)C(=O)[C@H](Cc2ccccc2)NC(=O)CN2CCN(S(=O)(=O)c3ccc(N)cc3)CC2=O)cc1" 1.8

* * *

- TEST_PROTOCOL: in vitro
- PARTICULARS: human, liver microsomes
- Description: Stability in human liver microsomes assessed as compound remaining level incubated for 60 mins in presence of NADPH regenerating system by LC-MS/MS analysis
MEASURED_ATTRIBUTE: remaining at 1 h (%)
Only the number, expressed in %, is required.

Requested field: remaining at 1 h. Item: "COc1ccc(N(C)C(=O)[C@H](Cc2ccccc2)NC(=O)CN2CCN(S(=O)(=O)c3ccc(N)cc3)CC2=O)cc1" 0

* * *

Recorded CC50 values for a group of compounds are listed next.
- Tested on: TZM
- TEST_PROTOCOL: Cytotoxicity in uninfected human TZM-bl assessed as reduction in cell viability incubated for 1 day by Cyto-tox-Glo cytotoxicity assay
- Assay type: cell-based
- PARTICULARS: 24 h

The cases that follow already have their CC50 on record.
COc1ccc(N(C)C(=O)[C@H](Cc2ccccc2)NC(=O)CN2C(=O)N(CC(=O)N[C@@H](Cc3ccccc3)C(=O)N(C)c3ccc(OC)cc3)S(=O)(=O)c3cc(F)ccc32)cc1: > 23.1 µM
COc1ccc(N(C)C(=O)[C@H](Cc2ccccc2)NC(=O)CNS(=O)(=O)c2ccc(F)cc2)cc1: > 40 µM
COc1ccc(N(C)C(=O)[C@H](Cc2ccccc2)NC(=O)CNS(=O)(=O)c2ccccc2[N+](=O)[O-])cc1: > 38 µM
COc1ccc(N(C)C(=O)[C@H](Cc2ccccc2)NC(=O)CNS(=O)(=O)c2cc(C)cc(C)c2)cc1: > 39.2 µM
COc1ccc(N(C)C(=O)[C@H](Cc2ccccc2)NC(=O)CN2CCN(S(=O)(=O)c3ccc(C)cc3)CC2=O)cc1: > 34.6 µM
COc1ccc(N(C)C(=O)[C@H](Cc2ccccc2)NC(=O)CN2CCN(S(=O)(=O)c3ccc([N+](=O)[O-])cc3)CC2=O)cc1: > 32.8 µM

Requested field: CC50. Item: "COc1ccc(N(C)C(=O)[C@H](Cc2ccccc2)NC(=O)CN2C(=O)N(CC(=O)N[C@@H](Cc3ccccc3)C(=O)N(C)c3ccc(OC)cc3)S(=O)(=O)c3cc(Br)ccc32)cc1" > 21.6 µM

Requested field: CC50. Item: "COc1ccc(N(C)C(=O)[C@H](Cc2ccccc2)NC(=O)CNS(=O)(=O)c2c(C(C)C)cc(C(C)C)cc2C(C)C)cc1" > 32.9 µM

* * *

- TEST_PROTOCOL: Clearance in Sprague-Dawley rat at 2 mg/kg, iv measured during 5 mins to 12 hrs by LC-MS analysis
- Format: ADME, organism-based
- PARTICULARS: in vivo
MEASURED_ATTRIBUTE: clearance (mL/min/kg)
Only the number, expressed in mL/min/kg, is required.

Requested field: clearance. Item: "COc1ccc(N(C)C(=O)[C@H](Cc2ccccc2)NC(=O)CN2CCN(S(=O)(=O)c3ccc(N)cc3)CC2=O)cc1" 67.7

* * *

- TEST_PROTOCOL: in vitro
- PARTICULARS: human, liver microsomes
- Description: Stability in human liver microsomes assessed as compound remaining level incubated for 60 mins in absence of NADPH regenerating system by LC-MS/MS analysis
MEASURED_ATTRIBUTE: remaining at 1 h (%)
Only the number, expressed in %, is required.

Requested field: remaining at 1 h. Item: "COc1ccc(N(C)C(=O)[C@H](Cc2ccccc2)NC(=O)CN2CCN(S(=O)(=O)c3ccc(N)cc3)CC2=O)cc1" 93.4

* * *

- TEST_PROTOCOL: Cmax in Sprague-Dawley rat at 2 mg/kg, iv measured during 5 mins to 12 hrs by LC-MS analysis
- Format: ADME, organism-based
- Set-up: dose 2 mg/kg, route intravenous
- PARTICULARS: in vivo
MEASURED_ATTRIBUTE: Cmax (ng/mL)
Only the number, expressed in ng/mL, is required.

Requested field: Cmax. Item: "COc1ccc(N(C)C(=O)[C@H](Cc2ccccc2)NC(=O)CN2CCN(S(=O)(=O)c3ccc(N)cc3)CC2=O)cc1" 1280

* * *

Recorded CC50 values for a group of compounds are listed next.
- Test system: MT4
- TEST_PROTOCOL: Cytotoxicity in mock-infected human MT4 assessed as reduction in cell viability incubated for 5 days by MTT assay
- Assay type: cell-based
- PARTICULARS: mt4, 120 h
Only the number, expressed in µM, is required.

The cases that follow already have their CC50 on record.
COc1ccc(N(C)C(=O)[C@H](Cc2ccccc2)NC(=O)CN2CCN(S(=O)(=O)c3ccc(N)cc3)CC2=O)cc1: 179
COc1ccc(N(C)C(=O)[C@H](Cc2ccccc2)NC(=O)CN2CCN(S(=O)(=O)c3ccc([N+](=O)[O-])cc3)CC2=O)cc1: 8.89
COc1ccc(N(C)C(=O)[C@H](Cc2ccccc2)NC(=O)CN2C(=O)Nc3ccccc3S2(=O)=O)cc1: 130
COc1ccc(N(C)C(=O)[C@H](Cc2ccccc2)NC(=O)CNS(=O)(=O)c2cccc(F)c2)cc1: 136
Cc1[nH]c2ccccc2c1CC(=O)N[C@@H](Cc1ccccc1)C(=O)N(C)c1ccccc1: 145

Please find the next compound below.
Requested field: CC50. Item: "COc1ccc(N(C)C(=O)[C@H](Cc2ccccc2)NC(=O)CN2CCN(S(=O)(=O)c3ccccc3)CC2=O)cc1" 109

* * *

- TESTED_TARGET: Structural capsid protein (Human immunodeficiency virus 1)
- TEST_PROTOCOL: Binding affinity to HIV1 NL4-3 capsid protein monomer by SPR analysis
Recorded pKd values for a group of compounds are listed next.
Lab note: report pKd as minus log10 of the concentration in molar units, number only.

COc1ccc(N(C)C(=O)[C@H](Cc2ccccc2)NC(=O)CN2CCN(S(=O)(=O)c3cccc(N)c3)CC2=O)cc1: 5.00

Please find the next compound below.
Requested field: pKd. Item: "COc1ccc(N(C)C(=O)[C@H](Cc2ccccc2)NC(=O)CN2C(=O)N(CC(=O)N[C@@H](Cc3ccccc3)C(=O)N(C)c3ccc(OC)cc3)S(=O)(=O)c3cc(F)ccc32)cc1" 6.70

* * *

- Tested on: TZM
- TEST_PROTOCOL: Cytotoxicity in uninfected human TZM-bl assessed as reduction in cell viability incubated for 1 day by Cyto-tox-Glo cytotoxicity assay
- Format: cell-based
- PARTICULARS: 24 h
MEASURED_ATTRIBUTE: CC50

The cases that follow already have their CC50 on record.
COc1ccc(N(C)C(=O)[C@H](Cc2ccccc2)NC(=O)CNS(=O)(=O)c2ccc(Cl)cc2)cc1: > 38.8 µM
COc1ccc(N(C)C(=O)[C@H](Cc2ccccc2)NC(=O)CN2CCN(S(=O)(=O)c3ccc(N)cc3)CC2=O)cc1: > 34.5 µM
COc1ccc(N(C)C(=O)[C@H](Cc2ccccc2)NC(=O)CN2CCN(S(=O)(=O)c3ccccc3)CC2=O)cc1: > 35.4 µM
COc1ccc(N(C)C(=O)[C@H](Cc2ccccc2)NC(=O)CN2CCN(S(=O)(=O)c3ccccc3N)CC2=O)cc1: > 34.5 µM
Cc1[nH]c2ccccc2c1CC(=O)N[C@@H](Cc1ccccc1)C(=O)N(C)c1ccccc1: > 47 µM

Please find the next compound below.
Write down the reported CC50 of "COc1ccc(N(C)C(=O)[C@H](Cc2ccccc2)NC(=O)CN2CCN(S(=O)(=O)c3ccc(OC)cc3)CC2=O)cc1" , test system: TZM. > 33.6 µM

* * *

- TEST_PROTOCOL: Cmax in Sprague-Dawley rat at 20 mg/kg, po measured during 5 mins to 12 hrs by LC-MS analysis
- Format: ADME, organism-based
- Parameters: dose 20 mg/kg, route oral
- PARTICULARS: in vivo
MEASURED_ATTRIBUTE: Cmax (µg/mL)
Only the number, expressed in µg/mL, is required.

Requested field: Cmax. Item: "COc1ccc(N(C)C(=O)[C@H](Cc2ccccc2)NC(=O)CN2CCN(S(=O)(=O)c3ccc(N)cc3)CC2=O)cc1" 0.0838

* * *

Recorded Kd values for a group of compounds are listed next.
- TESTED_TARGET: Structural capsid protein (Human immunodeficiency virus 1, UniProt Q76129)
- Sequence (Q76129 whole entry): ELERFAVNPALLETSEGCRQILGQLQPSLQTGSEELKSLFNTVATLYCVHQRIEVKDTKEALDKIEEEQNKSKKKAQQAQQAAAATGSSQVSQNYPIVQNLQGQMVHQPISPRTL
- TEST_PROTOCOL: Binding affinity to HIV1 NL4-3 capsid protein hexamer by SPR analysis
Only the number, expressed in nM, is required.

COc1ccc(N(C)C(=O)[C@H](Cc2ccccc2)NC(=O)CN2C(=O)N(CC(=O)N[C@@H](Cc3ccccc3)C(=O)N(C)c3ccc(OC)cc3)S(=O)(=O)c3cc(F)ccc32)cc1: 1300

Please find the next compound below.
Requested field: Kd. Item: "COc1ccc(N(C)C(=O)[C@H](Cc2ccccc2)NC(=O)CN2CCN(S(=O)(=O)c3cccc(N)c3)CC2=O)cc1" 3020
